Measured values drawn from PubChem BioAssay (NCATS) for this set.

For each of the molecules below, state its Potency.
# Protocol: Cellular viability qHTS for adrenocortical cancer (ACC) cell line SW-13 (AID 1963989); further: potency means the concentration at half of the fitted maximal effect; nearly all actives have a fitted effect of over 65% in size
# Condition Context: SW-13 ACC cells viability, CellTiter-Glo, 48 h
Records with an inconclusive call do not appear. Active and inactive are the calls of the source. The call rests on the fitted dose curve; in most records, active means well fitted cell-killing curve with a large enough effect; inconclusive means small, poorly fitted or top-dose-only effect; inactive means flat fitted curve, though single readings scatter.

Q: State the recorded Potency for this entry: "CC(C)(C)c1cnc(CSc2cnc(NC(=O)C3CCNCC3)s2)o1"
A: 0.631 µM (active)

Q: State the recorded Potency for this entry: "C[C@@H](Oc1cc(-c2cnn(C3CCNCC3)c2)cnc1N)c1c(Cl)ccc(F)c1Cl"
A: 3.55 µM (active)

Q: State the recorded Potency for this entry: "Cc1nc(Nc2n[nH]c3c2CN(C(=O)N[C@H](CN(C)C)c2ccccc2)C3(C)C)c2sccc2n1"
A: 3.16 µM (active)

Q: State the recorded Potency for this entry: "CCCCC(=O)OCC(=O)[C@]1(O)Cc2c(O)c3c(c(O)c2[C@@H](O[C@H]2C[C@H](NC(=O)C(F)(F)F)[C@H](O)[C@H](C)O2)C1)C(=O)c1c(OC)cccc1C3=O"
A: 2.82 µM (active)

Q: State the recorded Potency for this entry: "COc1cc2nccc(Oc3ccc(NC(=O)C4(C(=O)Nc5ccc(F)cc5)CC4)cc3)c2cc1OC"
A: 12.6 µM (active)

Q: State the recorded Potency for this entry: "O=C(Nc1cccc(C(F)(F)F)c1)Nc1cc(S(=O)(=O)NC2CC2)ccc1-c1ccsc1"
A: 28.2 µM (active)

Q: State the recorded Potency for this entry: "OC[C@H]1O[C@@H](n2cnc3c(=S)nc[nH]c32)[C@H](O)[C@@H]1O"
A: 9.2 µM (active)

Q: State the recorded Potency for this entry: "Nc1ccc(F)cc1NC(=O)c1ccc(CNC(=O)/C=C/c2cccnc2)cc1"
A: 11.2 µM (active)

====

# Protocol: Quantitative highthroughput screen to assess conditional lethalithy of SEM cells grown in Human Plasma-Like Medium with dialyzed fetal bovine serum (HPLM+ds) (AID 1963882); further: nearly all actives have a fitted effect of over 35% in size
# Condition Context: SEM B-ALL cells in HPLM+ds, CellTiter-Glo viability, 48 h; series mostly up to 45.8 µM
Records with an inconclusive call do not appear. The source made the active and inactive calls. Calls come from the whole dose curve; as a rule, active = well fitted cell-killing curve with a large enough effect; inconclusive = small, poorly fitted or top-dose-only effect, or effect the other way; inactive = no such curve, though single readings can be large or run the other way.
Hello, when you answer, please use one of the following outcomes: 1 = active, 0 = inactive

Q: For O=C1CCCC2=C1C(c1[nH]ncc1Cl)N=C(Nc1nc3ccccc3o1)N2 (stereo not given) , what call appears in the results of this test?
A: 0

Q: For "Nc1cccc(S(=O)(=O)N2CCCN(S(=O)(=O)c3ccc4c(c3)OCCO4)CC2)c1" , what call appears in the results of this test?
A: 0

Q: For "COc1ccc(C=CC(=O)Nc2ccccc2C(=O)O)cc1OC" , what call appears in the results of this test?
A: 0

Q: For "O=C1NC(=O)C(=Cc2cccc(C(F)(F)F)c2)S1" , what call appears in the results of this test?
A: 0

Q: For "Cn1cnc2c(F)c(Nc3ccc(Br)cc3Cl)c(C(=O)NOCCO)cc21" , what call appears in the results of this test?
A: 1

Q: For "Nc1cc(C(F)(F)F)c(-c2cc(N3CCOCC3)nc(N3CCOCC3)n2)cn1" , what call appears in the results of this test?
A: 1

Q: For "CN(Cc1cnc2nc(N)nc(N)c2n1)c1ccc(C(=O)N[C@@H](CCC(=O)O)C(=O)O)cc1" , what call appears in the results of this test?
A: 1

Q: For CC1(C)OC2CC3C4CC(F)C5=CC(=O)C=CC5(C)C4C(O)CC3(C)[C@]2(C(=O)CO)O1 (stereo not given in full) , what call appears in the results of this test?
A: 1

Q: For CC(NCCc1ccc(O)cc1)C(O)c1ccc(O)cc1 (stereo not given) , what call appears in the results of this test?
A: 0

Q: For CCC1(C)CC(=O)NC1=O (stereo not given) , what call appears in the results of this test?
A: 0

====

# Protocol: Viability qHTS for spleen associated tyrosine kinase inhibitor (SYKi) naive MV4-11 cells (AID 1963823); further: nearly all actives have a fitted effect of over 40% in size
# Condition Context: MV4-11 AML viability, CellTiter-Glo luminescence, 72 h; series mostly up to 45 µM
Inconclusive results are not listed. Calls of active or inactive are those of the source. The call rests on the fitted dose curve; in most records, active means well fitted cell-killing curve with a large enough effect; inconclusive means small, poorly fitted or top-dose-only effect, or effect the other way; inactive means no such curve, though single readings can be large or run the other way. Numbered stars: 1 amine (or outer) side, 2 acyl side, 3 side chain; on linkers, the order of the positions; unused ones are H or OH. Bridge positions count the residues as written; N and C are the ends. Square brackets hold non-standard residues; d marks the D form. Peptide text beside a SMILES is read from it. I, II: the chains in the order shown. Actinocin(9to1) = Cc1c2oc3c(C)ccc(C(=O)[*:1])c3nc-2c(C(=O)[*:2])c(N)c1=O; NMeV = CN[CH](C(=O)O)C(C)C; Sar = CNCC(=O)O
Hello, when you answer, please use one of the following outcomes: true (1) (active), false (0) (inactive)

Q: For "O=C(O)[C@@H](O)[C@H](O)[C@H](O)[C@@H](O)C(=O)O" , what call appears in the results of this test?
A: false (0)

Q: For "O=C(/C=C/c1c(C(=O)O)[nH]c2cc(Cl)cc(Cl)c12)Nc1ccccc1" , what call appears in the results of this test?
A: false (0)

Q: For "Cc1cc(C(=O)N2Cc3cnn(C)c3Nc3ccccc32)ccc1CNC(=O)N1CCN(Cc2cc(O)cc(O)c2)CC1" , what call appears in the results of this test?
A: false (0)

Q: For "N[C@@H](COP(=O)(O)O)C(=O)O" , what call appears in the results of this test?
A: false (0)

Q: For CN[C@@H]1[C@@H](O)[C@@H](O[C@@H]2[C@H](O)[C@H](O[C@H]3OC(CN)=CC[C@H]3N)[C@@H](N)C[C@H]2N)OCC1(C)O (some centres not stated) , what call appears in the results of this test?
A: false (0)

Q: For "Cc1cccn2c(=O)c(-c3nnn[nH]3)cnc12" , what call appears in the results of this test?
A: false (0)

Q: For "[N-]=[N+]=N[C@]1(CO)O[C@@H](n2ccc(=O)[nH]c2=O)[C@@H](O)[C@@H]1O" , what call appears in the results of this test?
A: false (0)

Q: For CCCCS(=N)(=O)CCC(N)C(=O)O (configuration not stated) , what call appears in the results of this test?
A: true (1)

Q: For "CN1CCN(c2cc3c(nn2)Oc2ccccc2N3C)CC1" , what call appears in the results of this test?
A: false (0)

Q: For Cc1c2oc3c(C)ccc(C(=O)NC4C(=O)NC(C(C)C)C(=O)N5CCCC5C(=O)N(C)CC(=O)N(C)C(C(C)C)C(=O)OC4C)c3nc-2c(C(=O)NC2C(=O)NC(C(C)C)C(=O)N3CCCC3C(=O)N(C)CC(=O)N(C)C(C(C)C)C(=O)OC2C)c(N)c1=O (configuration not stated) (I: TVP[Sar][NMeV] / II: TVP[Sar][NMeV]; ester I:1-I:C, II:1-II:C; linker I:N-II:N via Actinocin(9to1); configuration not given here) , what call appears in the results of this test?
A: true (1)

Q: For "N[C@@]1(C(=O)O)CC[C@H]2[C@H](C(=O)O)[C@H]21" , what call appears in the results of this test?
A: false (0)

Q: For "O=C(NN1CCCCC1)c1nn(-c2ccc(Cl)cc2Cl)c(-c2ccc(C#Cc3ccc(C(F)(F)F)cc3)s2)c1CNS(=O)(=O)N1CCCC1" , what call appears in the results of this test?
A: false (0)

Q: For C=C1C(=O)OC2/C=C(/C)CC/C=C(/C)CCC12 (configuration not stated) , what call appears in the results of this test?
A: true (1)

Q: For "C[C@]1(c2nc3c(C(N)=O)cccc3[nH]2)CCCN1" , what call appears in the results of this test?
A: false (0)

Q: For "C[C@@]12C[C@]3(O)O[C@H](O1)[C@]1(COC(=O)c4ccccc4)[C@H]3C[C@@]12O[C@@H]1O[C@H](CO)[C@@H](O)[C@H](O)[C@H]1O" , what call appears in the results of this test?
A: false (0)

Q: For "C[C@@H]1CC(=O)Nc2cccc(-c3ccc4c(c3)c(-c3cnn(C)c3)nn4C)c2N1" , what call appears in the results of this test?
A: true (1)

Q: For "Cn1cc(-c2c[nH]c3ncnc(N4CCOCC4)c23)cn1" , what call appears in the results of this test?
A: true (1)
